B1: TIA1 (parent)
chain: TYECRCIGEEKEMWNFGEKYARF

# Variants of: B1
# assay_protocol: protein stability index of a GFP-peptide fusion (GPS, HEK-293T) (PSI 1-6); higher = more stable;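 also: lentivirally expressed fusions sorted by FACS into six bins by GFP to DsRed ratio, PSI derived from sequencing read proportions per bin multiplied by bin number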
# conditions: c terminus: native
I would appreciate it if you labelled entries 1 when protein stability index is 2 or higher, otherwise -1.

I7Y :: 1

Q: I'd appreciate it if you could say whether `W14E` has protein stability index at least equal to 2.
Result: 1

Q: I'd appreciate it if you could say whether `E3L` has protein stability index at least equal to 2.
Result: 1

Q: I'd appreciate it if you could say whether `C4E` has protein stability index at least equal to 2.
Result: 1

Q: I'd appreciate it if you could say whether `E3Q` has protein stability index at least equal to 2.
Result: 1
